- protocol description: yeast display, Sf9 membrane polyspecificity reagent, FACS + sequencing; frameworks hold sequencing errors
endpoint label: polyreactivity (PSR sort gate)

Below are worked cases with known answers.
QVQLVESGGGLVQAGGSLRLSCAASGSTFFLYAMGWYIQAPGKERELVAAISGSGGTTYYADSVKGRFTISRDNAKNTVYLQMNSLKPEDTAVYYCNKDYYPGSYDYWGQGTQVTVSS ... low polyreactivity
QVQLVESGGGLVQPGGSLRLSCAASGFTFRGYDMGWYRQAPGTERELVAGITWGDDSTYYADSVKGRFTISRDNAKNTVYLQMNSLKPEDTAVYYCATYFRVYYSQYDYWGEGTQVTVSS ... high polyreactivity
QVQLQESGAGLEQAGGSLRMSCAASGYISDIVTMGWYRQAPGKEREFVATIVVGSTTNYADSVKGRFTISRDNANNSVYLQPESGRYRGVLLRGWLLAVGKFTYWGQGTQETVSS ... low polyreactivity
QVQLVESGGGLVQAGGRLRLSCSASGSIFVTYDMGWYRQAPGKERELVAGISGSGSTNYADSVKGRFTISRDNAKNTVYLQMNSLKPEDTAVYYCAAEYEYLWSQYLTDYGYDYWGQGTQVTVSS ... low polyreactivity
QVQLVESGGGLVQAGGSLRLSCAASGSTFVRNAMGWYRQATGKERELVAAITTSGARTYYADSVKGRFTISRDNAKNTVYLQMNSLKPEDTAVYYCAAEYKGRTYRFDYWGQGTQVTVSS ... low polyreactivity

// returns reported polyreactivity (PSR sort gate) for input "QVQLVESGGGLVQAGGSLRLSCAASGFTFYAYAMGWYRQAPGKERELVAVISQSGTRTYYADSVKGRFTISRDNAKNTVYLQMNSLKPEDTAVYYCAADTYSPDREYGYWGQGTQVTVSS"
high polyreactivity

Next sequence: "QVQLVESGGGLGQAGGSLRLSCAASGLIFSPYDMGWYRQAPGKERELVGAISNGDSTNYADSVKGRFTISRDNAKNTVYLQMNSLKAEDTAVYYCNAAIPSWLEYEYWGQGTQVTVSS"
low polyreactivity

Next sequence: "QVQLVESGGGLVQAGGSLRLSCAASGSTFTLNAMGWYRQAPGKERELVADISWSSGRTYYADSVKGRFTISRDTAKNTVYLQMNSLKPEDTAVYYCATEDFWNVKFYAYYPEFDYWGQGTQVTVSS"
low polyreactivity

Next sequence: "QVQLQESGGGLVQAGGSLRLRCAASRNISGSSDLGWYHQAPGKEREFVASMTSGGTTYYADSVKGRFTISRDNAKISEYLQMNSLKPEDTAVYYCAVGDPADAEFGYWGQGTQVTVRS"
low polyreactivity

Next sequence: "QVHLVESGGGLVQAGGSLRLSSAASGSIFQYNAMGWYRQAPGKERELVAGITTGGDTNYADSVKGRFTISRDNAKNTVYLHMNSLKPEDTAVYYCAARFGQWVSAYDYWGQGTQVTVSS"
low polyreactivity

Next sequence: "QVQLVESGGGLVQAGGSLRLSCAAYAMGWYRQAPGKERELVAAMSSSGGSTYYADSVKGRFTISRDNAKTTVYLQMTSLKPEDTAVYYCARDPDTYFFPPTGYYTSGFDSWGQGTQVTVSS"
low polyreactivity

---

- protocol description: yeast display, Sf9 membrane polyspecificity reagent, FACS + sequencing; frameworks hold sequencing errors
endpoint label: polyreactivity (PSR sort gate)

Below are worked cases with known answers.
QVQLVDSGGGLVQAGGSLRLSCASTGSIYRYAIGWNRQSPGKERELVAAINFNGGRTYYADSVKGRFTISSDNAKNTVYLQMNSLKPEDTAVYYCAAVRSSNQGGFDYWGQGTLVTVSS ... high polyreactivity
QVQLVESGGGLVQAGGSLRLSCAASGRTFYRYAMGWYRQAPGKERELVATISRSGGSTYYADSVKGRFTISRDNAKNTVYLQMNSLKPEDTAVFYCNAEGYPWGFYTYDYWGQGTQVTVSS ... low polyreactivity
QVQLVESGGGLVQAGGSLRLSCAASGFIFQIYPMGWYRQAPGKERELVAAISSGGSTNYADSVKGRFTISRDNAKNTVYLQMNSLKPEDTAVYYCAAATHYWYFYSFKDKSGFRGYYWGQGTQVTVSS ... high polyreactivity
EEELVESGGGLVQAGGSLRLSCAASGNIFEVNTMGWYRQAPGKERELVAAITSTGSTNYADSVKGRFTISRDNAKNTVYLQMNSLKPVDTAVYYSSATLEWYRYTYEYDYWGQGTQVTVSS ... low polyreactivity

// returns reported polyreactivity (PSR sort gate) for input "QVQLQESGGGLVQEGGSLRLSCAASGNISPPADMGWYRQAPGKERELVASIGTGGTTNYADSVKGRFTISRDNAKNTVYLQMNSLQPDDTAVYYCAAVRYEYNPYDYWGQGTQVTVSS"
low polyreactivity

Next sequence: "QVQLVESGGGLVQAGGSLRLSCAASGSILTSYAMGWSRQAPGKERELVAAISTTGGSTYYADSVKGRFTISRDNAKNTVYLQMNRLKPEDSAVYYCAAAGRTYRPGTGGYGYWGQGTQVTVSS"
low polyreactivity

Next sequence: "QVQLVESGGGLVQAGGSLRLSCAASGSTFISNTMGWYRQAPGKERELVAAITRTGGRTYYADSVKGRFTISRDNAKNTVYLQMNSLKPEDTAVYYCARYGGYWSLKYDYWGQGTQVTVSS"
high polyreactivity
